The values you see were collected from paper PMC8880564.

- System: HL-60(TB)
- procedure details: NCI-60 one-dose SRB screening
- Format: cell-based
- measurement setup: Homo sapiens, Leukemia, 10 µM one dose, 48 h, read-out: growth percentage
experimental readout: activity at 10 µM (%)
Write the value in % as a bare number.

Example compounds with recorded activity at 10 µM:
Cc1nn(-c2ccccc2)c2ncnc(Nc3ccc(OCc4c(-c5ccccc5)no[n+]4[O-])cc3)c12
119
[O-][n+]1onc(-c2ccccc2)c1COc1ccc(Nc2ncnc3c2cnn3-c2ccccc2)cc1
94.7
Cc1nn(-c2ccccc2)c2nc(C(F)(F)F)nc(Nc3ccc(NCc4c(-c5ccccc5)no[n+]4[O-])cc3)c12 [12a]
77.2
Cc1nc(Nc2ccc(OCc3c(-c4ccccc4)no[n+]3[O-])cc2)c2c(C)nn(-c3ccccc3)c2n1
111
Cc1nc(Nc2ccc(OCc3c(-c4ccccc4)no[n+]3[O-])cc2)c2cnn(-c3ccc(Br)cc3)c2n1
100

QUERY: Find the recorded activity at 10 µM belonging to Cc1nn(-c2ccccc2)c2nc(CCl)[nH]c(=O)c12 [13b] and report it.
RESULT: 33.1

QUERY: Param item = Cc1nn(-c2ccc(Br)cc2)c2ncnc(Nc3ccc(OCc4c(-c5ccccc5)no[n+]4[O-])cc3)c12 ; retrieve measured activity at 10 µM.
RESULT: 115

QUERY: # query: activity at 10 µM of entry Cc1nn(-c2ccc(Br)cc2)c2nc(C(F)(F)F)nc(Nc3ccc(NCc4c(-c5ccccc5)no[n+]4[O-])cc3)c12 [12c]
RESULT: 83.2

* * *

Measured activity at 10 µM, listed per entry.
- Tested on: RPMI-8226
- procedure details: NCI-60 one-dose SRB screening
- Type: cell-based
- measurement setup: Homo sapiens, RPMI-8226, Leukemia, 10 µM one dose, 48 h, read-out: growth percentage
The reply should contain only the number, in %.

Use these answered entries as a reference point.
Cc1nn(-c2ccccc2)c2nc(C(F)(F)F)nc(Nc3ccc(NCc4c(-c5ccccc5)no[n+]4[O-])cc3)c12 [12a]
83.4
Cc1nn(-c2ccccc2)c2nc(CNc3ccc(NCc4c(-c5ccccc5)no[n+]4[O-])cc3)[nH]c(=O)c12 [14b]
79
Cc1nn(-c2ccc(Br)cc2)c2nc(CCl)[nH]c(=O)c12 [13c]
-53.9

QUERY: For Cc1nc(Nc2ccc(OCc3c(-c4ccccc4)no[n+]3[O-])cc2)c2cnn(-c3ccccc3)c2n1 , what is its reported activity at 10 µM?
RESULT: 114

QUERY: What measured activity at 10 µM goes with Cc1nn(-c2ccc(Br)cc2)c2nc(C(F)(F)F)nc(Nc3ccc(NCc4c(-c5ccccc5)no[n+]4[O-])cc3)c12 [12c] ?
RESULT: 91.1

QUERY: Given Nc1ccc(NCc2c(-c3ccccc3)no[n+]2[O-])cc1 , state its recorded activity at 10 µM.
RESULT: 97.5

* * *

- Tested on: MDA-MB-231/ATCC
- procedure details: NCI-60 one-dose SRB screening
- Type: cell-based
- measurement setup: Homo sapiens, Breast Cancer, 10 µM one dose, 48 h, read-out: growth percentage
experimental readout: activity at 10 µM (%)
Write it as a number; the unit % goes unstated.

Cc1nn(-c2ccccc2)c2nc(CCl)[nH]c(=O)c12 [13b]
88.4
Cc1nn(-c2ccc(Br)cc2)c2ncnc(Nc3ccc(OCc4c(-c5ccccc5)no[n+]4[O-])cc3)c12
84.9

QUERY: What value of activity at 10 µM has been reported for the following compound? Cc1nn(-c2ccccc2)c2nc(C(F)(F)F)nc(Nc3ccc(NCc4c(-c5ccccc5)no[n+]4[O-])cc3)c12 [12a]
RESULT: 84.4

QUERY: Field request: activity at 10 µM | item: Nc1ccc(NCc2c(-c3ccccc3)no[n+]2[O-])cc1
RESULT: 104

QUERY: Query (compound): Cc1nn(-c2ccccc2)c2nc(CNc3ccc(NCc4c(-c5ccccc5)no[n+]4[O-])cc3)[nH]c(=O)c12 [14b] ; field requested: activity at 10 µM
RESULT: 82.7

QUERY: Reported activity at 10 µM, compound Cc1nc(Nc2ccc(OCc3c(-c4ccccc4)no[n+]3[O-])cc2)c2cnn(-c3ccccc3)c2n1 : ____
RESULT: 106

* * *

- System: UO-31
- procedure details: NCI-60 one-dose SRB screening
- Assay type: cell-based
- measurement setup: Homo sapiens, UO-31, Renal Cancer, 10 µM one dose, 48 h, read-out: growth percentage
Rule: activity at 10 µM below 80% gives True. Equal to or above 80% gives False.

Cc1nn(-c2ccc(Br)cc2)c2nc(CCl)[nH]c(=O)c12 [13c]
True
Cc1nc(Nc2ccc(OCc3c(-c4ccccc4)no[n+]3[O-])cc2)c2cnn(-c3ccccc3)c2n1 [6b]
False
Cc1nn(-c2ccccc2)c2ncnc(Nc3ccc(OCc4c(-c5ccccc5)no[n+]4[O-])cc3)c12 [6c]
True
[O-][n+]1onc(-c2ccccc2)c1COc1ccc(Nc2ncnc3c2cnn3-c2ccccc2)cc1 [6a]
False
Cc1nn(-c2ccccc2)c2nc(C(F)(F)F)nc(Nc3ccc(NCc4c(-c5ccccc5)no[n+]4[O-])cc3)c12 [12a]
True
O=c1[nH]c(CCl)nc2c1cnn2-c1ccccc1 [13a]
True

QUERY: Does Cc1nc(Nc2ccc(OCc3c(-c4ccccc4)no[n+]3[O-])cc2)c2cnn(-c3ccc(Br)cc3)c2n1 [6f] have activity at 10 µM strictly under 80%?
RESULT: False

QUERY: Report whether reported activity at 10 µM is lower than 80% (strictly) for Cc1nc(Nc2ccc(OCc3c(-c4ccccc4)no[n+]3[O-])cc2)c2c(C)nn(-c3ccccc3)c2n1 [6d]
RESULT: False

QUERY: hey, is activity at 10 µM for [O-][n+]1onc(-c2ccccc2)c1COc1ccc(Nc2ncnc3c2cnn3-c2ccc(Br)cc2)cc1 [6e] lower than 80% or not?
RESULT: False

QUERY: Identify whether the compound [O-][n+]1onc(-c2ccccc2)c1CNc1ccc(Nc2nc(C(F)(F)F)nc3c2cnn3-c2ccc(Br)cc2)cc1 [12b] records activity at 10 µM below 80%.
RESULT: True

* * *

- System: COLO 205
- procedure details: NCI-60 one-dose SRB screening
- Assay type: cell-based
- measurement setup: Homo sapiens, COLO 205, Colon Cancer, 10 µM one dose, 48 h, read-out: growth percentage
Catalogue of activity at 10 µM readings, one per entry.
Form entry: value (%) — number only.

Cc1nn(-c2ccc(Br)cc2)c2nc(C(F)(F)F)nc(Nc3ccc(NCc4c(-c5ccccc5)no[n+]4[O-])cc3)c12 [12c]
73.2
[O-][n+]1onc(-c2ccccc2)c1COc1ccc(Nc2ncnc3c2cnn3-c2ccccc2)cc1
104
Cc1nn(-c2ccccc2)c2nc(C(F)(F)F)nc(Nc3ccc(NCc4c(-c5ccccc5)no[n+]4[O-])cc3)c12 [12a]
73.6
Cc1nn(-c2ccccc2)c2nc(CNc3ccc(NCc4c(-c5ccccc5)no[n+]4[O-])cc3)[nH]c(=O)c12 [14b]
116

QUERY: Name the reported activity at 10 µM value associated with the compound Cc1nc(Nc2ccc(OCc3c(-c4ccccc4)no[n+]3[O-])cc2)c2cnn(-c3ccccc3)c2n1
RESULT: 114

* * *

Collected activity at 10 µM values appear next to each entry.
- System: BT-549
- procedure details: NCI-60 one-dose SRB screening
- Format: cell-based
- measurement setup: Homo sapiens, BT-549, Breast Cancer, 10 µM one dose, 48 h, read-out: growth percentage
Quick reminder: number only, in %, skip the unit.

Worked examples follow.
Cc1nn(-c2ccccc2)c2nc(CCl)[nH]c(=O)c12 [13b]
100
Cc1nn(-c2ccccc2)c2nc(CNc3ccc(NCc4c(-c5ccccc5)no[n+]4[O-])cc3)[nH]c(=O)c12 [14b]
95.9
Cc1nc(Nc2ccc(OCc3c(-c4ccccc4)no[n+]3[O-])cc2)c2cnn(-c3ccc(Br)cc3)c2n1 [6f]
94.5
[O-][n+]1onc(-c2ccccc2)c1CNc1ccc(Nc2nc(C(F)(F)F)nc3c2cnn3-c2ccc(Br)cc2)cc1 [12b]
97.5
Nc1ccc(NCc2c(-c3ccccc3)no[n+]2[O-])cc1 [compound 11]
103

QUERY: I would be grateful if you could share the reported activity at 10 µM for Cc1nc(Nc2ccc(OCc3c(-c4ccccc4)no[n+]3[O-])cc2)c2c(C)nn(-c3ccc(Br)cc3)c2n1 [6h] .
RESULT: 91.1

QUERY: Reported activity at 10 µM for Cc1nc(Nc2ccc(OCc3c(-c4ccccc4)no[n+]3[O-])cc2)c2c(C)nn(-c3ccccc3)c2n1 [6d] : what is it?
RESULT: 102

* * *

- Tested on: LOX IMVI
- procedure details: NCI-60 one-dose SRB screening
- Format: cell-based
- measurement setup: Homo sapiens, Melanoma, 10 µM one dose, 48 h, read-out: growth percentage
experimental readout: activity at 10 µM (%)
Numeric answer only, unit % assumed.

Cc1nn(-c2ccccc2)c2nc(C(F)(F)F)nc(Nc3ccc(NCc4c(-c5ccccc5)no[n+]4[O-])cc3)c12 [12a]
58
Cc1nn(-c2ccccc2)c2nc(CCl)[nH]c(=O)c12 [13b]
101
O=c1[nH]c(CNc2ccc(NCc3c(-c4ccccc4)no[n+]3[O-])cc2)nc2c1cnn2-c1ccccc1 [14a]
85.5
Cc1nc(Nc2ccc(OCc3c(-c4ccccc4)no[n+]3[O-])cc2)c2c(C)nn(-c3ccc(Br)cc3)c2n1
98.9

QUERY: Record request: activity at 10 µM value, item [O-][n+]1onc(-c2ccccc2)c1CNc1ccc(Nc2nc(C(F)(F)F)nc3c2cnn3-c2ccc(Br)cc2)cc1 [12b]
RESULT: 27.9

QUERY: I have this compound here, [O-][n+]1onc(-c2ccccc2)c1COc1ccc(Nc2ncnc3c2cnn3-c2ccc(Br)cc2)cc1 , and I need its recorded activity at 10 µM.
RESULT: 111

QUERY: What value of activity at 10 µM has been reported for the following compound? Cc1nn(-c2ccc(Br)cc2)c2nc(CCl)[nH]c(=O)c12 [13c]
RESULT: 98.5

QUERY: Fill blank: measured activity at 10 µM of the compound Cc1nn(-c2ccc(Br)cc2)c2nc(CNc3ccc(NCc4c(-c5ccccc5)no[n+]4[O-])cc3)[nH]c(=O)c12 [14c] is ____.
RESULT: 102

QUERY: So what's the measured activity at 10 µM for this one? Cc1nn(-c2ccc(Br)cc2)c2ncnc(Nc3ccc(OCc4c(-c5ccccc5)no[n+]4[O-])cc3)c12
RESULT: 95

QUERY: Value lookup for activity at 10 µM; key = Cc1nc(Nc2ccc(OCc3c(-c4ccccc4)no[n+]3[O-])cc2)c2cnn(-c3ccc(Br)cc3)c2n1
RESULT: 105
